assay: qHTS for Inhibitors of Inflammasome Signaling: IL-1-beta AlphaLISA Primary Screen; conditions: THP-1 LPS/ATP IL-1B secretion, 16 h; at 57.5 µM; further: on the % scale 0 is the no-effect control and ±100 the full control effect
The whole screen tested about 360,000 compounds, of which about 17,000 (4.7%) were called active. Inconclusive results (about 5%) are left out. No stated cut-off is given here; in the data, active means activity change below about -50%; inconclusive means mostly about -30% to -49%; inactive means weaker than that. This excerpt belongs to a sample that is enriched for actives.
Entry note: the call must match one of yes (1) = active, no (0) = inactive

Hi team, can someone confirm the assay call for FC(F)(F)C1CCCN(c2nsc3ccccc23)C1 (stereo not given) ?
yes (1)

Hi team, can someone confirm the assay call for "Cc1cccc(C)c1NC(=O)COC(=O)c1ccccc1O" ?
no (0)

Hi team, can someone confirm the assay call for COc1ccc(NS(=O)(=O)c2ccc(C)c(C(=O)NCC(c3cccs3)N3CCOCC3)c2)cc1 (stereo not given) ?
no (0)

Hi team, can someone confirm the assay call for "COc1ccc(C(=O)COC(=O)c2ccc3ccccc3n2)cc1" ?
no (0)

Hi team, can someone confirm the assay call for COC(=O)CCCCCN1C(=O)NC(c2ccc(-c3ccccc3)cc2)C(C(=O)OCc2ccccc2)=C1C (stereo not given) ?
no (0)

Hi team, can someone confirm the assay call for Cc1cc(C)cc(NC(=O)C2CCCN(S(=O)(=O)c3ccc4[nH]c(=O)ccc4c3)C2)c1 (stereo not given) ?
no (0)

Hi team, can someone confirm the assay call for CCCCNC(=O)C(C)N(CCN(C)C)C(=O)CCCCCN1C(=O)NC(c2ccc(Cl)cc2)C(C(=O)OCc2ccccc2)=C1C (stereo not given) ?
yes (1)

Hi team, can someone confirm the assay call for "CCC(C)(C)n1nnnc1CN1CCN(c2nc3ccc(C)cc3cc2C#N)CC1" ?
yes (1)

Hi team, can someone confirm the assay call for COc1ccc(OC)c(C(O)c2ncc(-c3cccc(C(F)(F)F)c3)[nH]2)c1 (stereo not given) ?
no (0)

Hi team, can someone confirm the assay call for "CCN(C(=O)CSc1ncn[nH]1)c1cccc2ccccc12" ?
no (0)
